System: SW480
Experiment: Cytotoxicity against human SW480 cells expressing COX1 after 24 hrs by MTT assay
Format: functional, cell-based
Details: SW480, 24 h
Quick reference for IC50 among some compounds

| compound | IC50 |
| --- | --- |
| O=C(CCCC[C@@H]1CCSS1)Oc1ccccc1C(=O)OCCCCO[N+](=O)[O-] | 0.6 µM |
| CC(=O)Oc1ccccc1C(=O)O [ASPIRIN] | > 5000 µM |
| NC(=S)c1ccc(OC(=O)c2ccccc2OC(=O)CCCO[N+](=O)[O-])cc1 | 5.3 µM |

(Q) Item O=C(CCCO[N+](=O)[O-])Oc1ccccc1C(=O)Oc1ccc(-c2cc(=S)ss2)cc1 with SW480 - IC50?
(A) 0.06 µM

(Q) Item O=C(CCC(=O)Oc1ccccc1C(=O)Oc1ccc(-c2cc(=S)ss2)cc1)OCCCCO[N+](=O)[O-] with SW480 - IC50?
(A) 0.097 µM
